FYI, the data here is from patent US20230106583A1.

Tested on: HEK293T cells stably transfected with 8XTBD luciferase reporter and pRLTK
experiment: YAP Reporter Assay (8XTBD-driven firefly luciferase)
Type: cell-based
details: Homo sapiens, HEK-293T; HEK293T 8XTBD luciferase reporter; 24-hr incubation with compounds; top concentration 3 μM, 10 points
pIC50: −log10 of the molar value.
readout_kind: pIC50

1) CC[C@]1(c2nnc(-c3cccnc3Nc3ccc(C(F)(F)F)cc3)o2)CCCNC1=O :: ≥ 7.00
2) C[C@@]1(n2nnc(-c3cccnc3Nc3ccc(S(F)(F)(F)(F)F)cc3)n2)CCNC1=O :: 6.00 to 7.00
3) CCN(C#N)Cc1nnc(-c2nccnc2Nc2ccc(C(F)(F)F)cc2)o1 :: ≥ 7.00
4) CC[C@@]1(c2nnc(-c3cccnc3Nc3ccc(C(F)(F)F)cc3)o2)CCCNC1=O :: 6.00 to 7.00

###

Tested on: HEK293T cells stably transfected with 8XTBD luciferase reporter and pRLTK
experiment: YAP Reporter Assay (8XTBD-driven firefly luciferase)
Assay type: cell-based
details: Homo sapiens, HEK-293T; HEK293T 8XTBD luciferase reporter; 24-hr incubation with compounds; top concentration 3 μM, 10 points
pIC50: −log10 of the molar value.
A collection of compounds and their measured pIC50
readout_kind: pIC50

1) CC[C@@]1(c2nnc(-c3cccnc3Nc3ccc(S(F)(F)(F)(F)F)cc3)o2)CCCNC1=O :: ≥ 7.00
2) CN(C#N)CCc1nnc(-c2cccnc2Nc2ccc(C(F)(F)F)cc2)o1 :: ≥ 7.00
3) CNCc1nnc(-c2cccnc2Nc2ccc(C(F)(F)F)cc2)o1 :: 6.00 to 7.00
4) CN(C#N)CCc1nnc(-c2nccnc2Nc2ccc(C(F)(F)F)cc2)o1 :: ≥ 7.00
5) CC[C@]1(c2nnc(-c3cccnc3Nc3ccc(C(F)(F)F)cc3)o2)CCNC1=O :: ≥ 7.00
6) C[C@]1(c2nnc(-c3cccnc3Nc3ccc(C(F)(F)F)cc3)o2)CCCNC1=O :: 6.00 to 7.00
7) C[C@@]1(c2nnc(-c3cccnc3Nc3ccc(S(F)(F)(F)(F)F)cc3)o2)CCNC1=O :: ≥ 7.00
8) CN(C#N)Cc1nnc(-c2cccnc2Nc2ccc(C(F)(F)F)cc2)o1 :: ≥ 7.00
9) CC[C@@]1(c2nnc(-c3cccnc3Nc3ccc(C(F)(F)F)cc3)o2)CCNC1=O :: ≥ 7.00
10) CC[C@]1(c2nnc(-c3cccnc3Nc3ccc(S(F)(F)(F)(F)F)cc3)o2)CCCNC1=O :: 6.00 to 7.00
11) CCN(C#N)Cc1nnc(-c2cccnc2Nc2ccc(C(F)(F)F)cc2)o1 :: ≥ 7.00
12) CCN(C#N)CCc1nnc(-c2nccnc2Nc2ccc(C(F)(F)F)cc2)o1 :: ≥ 7.00
13) C[C@]1(c2nnc(-c3cccnc3Nc3ccc(S(F)(F)(F)(F)F)cc3)o2)CCCNC1=O :: ≥ 7.00
14) CC1(c2nnc(-c3cccnc3Nc3ccc(C(F)(F)F)cc3)o2)CC(N)=NC1=O (stereo not drawn) :: ≥ 7.00
15) CC1(c2nnc(-c3cccnc3Nc3ccc(C(F)(F)F)cc3)o2)OCCNC1=O (stereo not drawn) :: ≥ 7.00
16) C[C@@]1(n2nnc(-c3cccnc3Nc3ccc(C(F)(F)F)cc3)n2)CCNC1=O :: ≥ 7.00
17) C[C@]1(n2nnc(-c3cccnc3Nc3ccc(C(F)(F)F)cc3)n2)CCNC1=O :: ≥ 7.00
18) CNCc1nnc(-c2nccnc2Nc2ccc(C(F)(F)F)cc2)o1 :: 5.52 to 6.00
19) C[C@@]1(c2nnc(-c3cccnc3Nc3ccc(C(F)(F)F)cc3)o2)CCCNC1=O :: ≥ 7.00
20) CC1(c2nnc(-c3nccnc3Nc3ccc(C(F)(F)F)cc3)o2)CCNC1=O (stereo not drawn) :: ≥ 7.00
21) C[C@]1(c2nnc(-c3cccnc3Nc3ccc(C(F)(F)F)cc3)o2)CCNC1=O :: ≥ 7.00
22) CC[C@@]1(c2nnc(-c3cccnc3Nc3ccc(S(F)(F)(F)(F)F)cc3)o2)CCNC1=O :: ≥ 7.00
23) C[C@@]1(c2nnc(-c3cccnc3Nc3ccc(S(F)(F)(F)(F)F)cc3)o2)CCCNC1=O :: 6.00 to 7.00
24) CC1(c2nnc(-c3cccnc3Nc3ccc(C(F)(F)F)cc3)o2)CCNC1=O (stereo not drawn) :: ≥ 7.00
25) CN(C#N)Cc1nnc(-c2nccnc2Nc2ccc(C(F)(F)F)cc2)o1 :: ≥ 7.00
26) CN1CCNC(=O)C1(C)c1nnc(-c2cccnc2Nc2ccc(C(F)(F)F)cc2)o1 (stereo not drawn) :: 6.00 to 7.00
27) C[C@@]1(c2nnc(-c3cccnc3Nc3ccc(C(F)(F)F)cc3)o2)CCNC1=O :: ≥ 7.00
28) CC[C@]1(c2nnc(-c3cccnc3Nc3ccc(S(F)(F)(F)(F)F)cc3)o2)CCNC1=O :: 6.00 to 7.00
29) CCN(C#N)CCc1nnc(-c2cccnc2Nc2ccc(C(F)(F)F)cc2)o1 :: ≥ 7.00
30) C[C@]1(c2nnc(-c3cccnc3Nc3ccc(S(F)(F)(F)(F)F)cc3)o2)CCNC1=O :: 6.00 to 7.00
31) C[C@]1(n2nnc(-c3cccnc3Nc3ccc(S(F)(F)(F)(F)F)cc3)n2)CCNC1=O :: ≥ 7.00
32) CCN(Cc1nnc(-c2cccnc2Nc2ccc(C(F)(F)F)cc2)o1)C(=O)OC(C)(C)C :: 5.52 to 6.00
33) CC1(c2nnc(-c3cccnc3Nc3ccc(C(F)(F)F)cc3)o2)NCCNC1=O (stereo not drawn) :: ≥ 7.00
